target-system: Delta-type opioid receptor (Homo sapiens, UniProt P41143)
Sequence (P41143 whole entry): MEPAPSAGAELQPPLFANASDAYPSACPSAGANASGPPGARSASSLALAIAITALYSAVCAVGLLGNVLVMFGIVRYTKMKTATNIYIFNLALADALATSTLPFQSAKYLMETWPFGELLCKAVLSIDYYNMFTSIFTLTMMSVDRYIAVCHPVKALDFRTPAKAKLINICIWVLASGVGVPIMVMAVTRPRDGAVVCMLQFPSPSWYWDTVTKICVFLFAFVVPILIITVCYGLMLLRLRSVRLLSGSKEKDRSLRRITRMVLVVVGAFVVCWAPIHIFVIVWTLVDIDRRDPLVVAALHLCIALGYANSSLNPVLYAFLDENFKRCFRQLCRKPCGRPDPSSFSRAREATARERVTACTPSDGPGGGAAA
test-summary: Displacement of [3H]DADLE from DOR (unknown origin) expressed in HEK cells
*1 amine or outer side, *2 acyl side, *3 side chain or, on linkers, in order; H or OH if unused. Where a SMILES comes first, the peptide text is derived from it. Bridges are numbered along the chain shown (N, C = ends). Roman numbers before positions name the chains, in order. [ ]: non-standard residue; d: D form. Piperazine(1,4-diyl) = C1CN([*:2])CCN1[*:1]; Dmt = Cc1cc(O)cc(C)c1C[C@H](N)C(=O)O; Cystamine = C(CSSCCN[*:2])N[*:1]
Provide the reported pKi of each item.
Numbers only, as −log10 of the molar value.

compound	pKi
N[C@@H](Cc1ccc(O)cc1)C(=O)N[C@@H]1CSSC[C@@H](NC(=O)[C@@H](N)Cc2ccc(O)cc2)C(=O)NCC(=O)N[C@@H](Cc2ccccc2)C(=O)N2CCN(CC2)C(=O)[C@H](Cc2ccccc2)NC(=O)CNC1=O (HELM PEPTIDE1{Y.[dC].G.F}|PEPTIDE2{Y.[dC].G.F}|CHEM1{[C1CN([*:2])CCN1[*:1]]}$PEPTIDE1,PEPTIDE2,2:R3-2:R3|PEPTIDE1,CHEM1,4:R2-1:R1|PEPTIDE2,CHEM1,4:R2-1:R2$$$V2.0)	7.57
Cc1cc(O)cc(C)c1C[C@H](N)C(=O)N[C@@H]1CSSC[C@@H](NC(=O)[C@@H](N)Cc2c(C)cc(O)cc2C)C(=O)NCC(=O)N[C@@H](Cc2ccccc2)C(=O)N2CCN(CC2)C(=O)[C@H](Cc2ccccc2)NC(=O)CNC1=O (I: H-[Dmt][dC]GF / II: H-[Dmt][dC]GF; disulfide I:2-II:2; linker I:C-II:C via Piperazine(1,4-diyl))	8.70

Each of the following entries comes with a recorded value; kindly state pKi for each.
1. Cc1cc(O)cc(C)c1C[C@H](N)C(=O)N[C@@H]1CSSC[C@@H](NC(=O)[C@@H](N)Cc2c(C)cc(O)cc2C)C(=O)NCC(=O)N[C@@H](Cc2ccccc2)C(=O)NCCSSCCNC(=O)[C@H](Cc2ccccc2)NC(=O)CNC1=O (I: H-[Dmt][dC]GF / II: H-[Dmt][dC]GF; disulfide I:2-II:2; linker I:C-II:C via Cystamine)
2. N[C@@H](Cc1ccc(O)cc1)C(=O)N[C@@H]1CSSC[C@@H](NC(=O)[C@@H](N)Cc2ccc(O)cc2)C(=O)NCC(=O)N[C@@H](Cc2ccccc2)C(=O)NCCSSCCNC(=O)[C@H](Cc2ccccc2)NC(=O)CNC1=O (HELM PEPTIDE1{Y.[dC].G.F}|PEPTIDE2{Y.[dC].G.F}|CHEM1{[C(CSSCCN[*:2])N[*:1]]}$PEPTIDE1,PEPTIDE2,2:R3-2:R3|PEPTIDE1,CHEM1,4:R2-1:R1|PEPTIDE2,CHEM1,4:R2-1:R2$$$V2.0)

Completion:
[9.34, 8.39]

====

So I've got a bunch of compounds here, and I need their pKi values.
target-system: Kappa-type opioid receptor (Homo sapiens, UniProt P41145)
Sequence (P41145 whole entry): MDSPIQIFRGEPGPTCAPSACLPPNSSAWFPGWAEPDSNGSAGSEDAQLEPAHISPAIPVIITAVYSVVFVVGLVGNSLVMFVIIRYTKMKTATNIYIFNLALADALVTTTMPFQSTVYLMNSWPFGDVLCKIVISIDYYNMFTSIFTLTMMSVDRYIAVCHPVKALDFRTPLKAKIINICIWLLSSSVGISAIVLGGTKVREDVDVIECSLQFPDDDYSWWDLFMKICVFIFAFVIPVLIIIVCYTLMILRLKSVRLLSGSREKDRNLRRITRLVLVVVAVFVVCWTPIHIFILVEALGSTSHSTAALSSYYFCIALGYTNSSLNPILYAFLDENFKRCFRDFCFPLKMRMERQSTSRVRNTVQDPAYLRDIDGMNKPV
test-summary: Displacement of [3H]U69593 from KOR (unknown origin) expressed in HEK cells
Assay type: cell-based
*1 amine or outer side, *2 acyl side, *3 side chain or, on linkers, in order; H or OH if unused. Where a SMILES comes first, the peptide text is derived from it. Bridges are numbered along the chain shown (N, C = ends). Roman numbers before positions name the chains, in order. [ ]: non-standard residue; d: D form. Piperazine(1,4-diyl) = C1CN([*:2])CCN1[*:1]; Dmt = Cc1cc(O)cc(C)c1C[C@H](N)C(=O)O; Cystamine = C(CSSCCN[*:2])N[*:1]
Give bare numbers, as −log10 of the molar value.

Would you please look over these solved cases?
compound	recorded-number
N[C@@H](Cc1ccc(O)cc1)C(=O)N[C@@H]1CSSC[C@@H](NC(=O)[C@@H](N)Cc2ccc(O)cc2)C(=O)NCC(=O)N[C@@H](Cc2ccccc2)C(=O)NCCSSCCNC(=O)[C@H](Cc2ccccc2)NC(=O)CNC1=O (HELM PEPTIDE1{Y.[dC].G.F}|PEPTIDE2{Y.[dC].G.F}|CHEM1{[C(CSSCCN[*:2])N[*:1]]}$PEPTIDE1,PEPTIDE2,2:R3-2:R3|PEPTIDE1,CHEM1,4:R2-1:R1|PEPTIDE2,CHEM1,4:R2-1:R2$$$V2.0)	7.74
N[C@@H](Cc1ccc(O)cc1)C(=O)N[C@@H]1CSSC[C@@H](NC(=O)[C@@H](N)Cc2ccc(O)cc2)C(=O)NCC(=O)N[C@@H](Cc2ccccc2)C(=O)N2CCN(CC2)C(=O)[C@H](Cc2ccccc2)NC(=O)CNC1=O (HELM PEPTIDE1{Y.[dC].G.F}|PEPTIDE2{Y.[dC].G.F}|CHEM1{[C1CN([*:2])CCN1[*:1]]}$PEPTIDE1,PEPTIDE2,2:R3-2:R3|PEPTIDE1,CHEM1,4:R2-1:R1|PEPTIDE2,CHEM1,4:R2-1:R2$$$V2.0)	7.72
Cc1cc(O)cc(C)c1C[C@H](N)C(=O)N[C@@H]1CSSC[C@@H](NC(=O)[C@@H](N)Cc2c(C)cc(O)cc2C)C(=O)NCC(=O)N[C@@H](Cc2ccccc2)C(=O)N2CCN(CC2)C(=O)[C@H](Cc2ccccc2)NC(=O)CNC1=O (I: H-[Dmt][dC]GF / II: H-[Dmt][dC]GF; disulfide I:2-II:2; linker I:C-II:C via Piperazine(1,4-diyl))	8.31

Turning now to a further compound:
The compound listed as Cc1cc(O)cc(C)c1C[C@H](N)C(=O)N[C@@H]1CSSC[C@@H](NC(=O)[C@@H](N)Cc2c(C)cc(O)cc2C)C(=O)NCC(=O)N[C@@H](Cc2ccccc2)C(=O)NCCSSCCNC(=O)[C@H](Cc2ccccc2)NC(=O)CNC1=O (I: H-[Dmt][dC]GF / II: H-[Dmt][dC]GF; disulfide I:2-II:2; linker I:C-II:C via Cystamine) has a reported pKi of 9.06

====

target-system: Kappa-type opioid receptor (Homo sapiens)
test-summary: Agonist activity at KOR (unknown origin) expressed in HEK cells assessed as reduction in cAMP accumulation by split luciferase assay relative to salvinorin A
Format: functional, cell-based
Where a SMILES comes first, the peptide text is derived from it.
For each record, write down the corresponding Emax.
Give bare numbers, in %.

molecule	target-system	parameter	recorded-number
CC1(C)SSC(C)(C)[C@H](NC(=O)[C@@H](N)Cc2ccc(O)cc2)C(=O)NCC(=O)N[C@@H](Cc2ccccc2)C(=O)N2CCN(CC2)C(=O)[C@H](Cc2ccccc2)NC(=O)CNC(=O)[C@H]1NC(=O)[C@@H](N)Cc1ccc(O)cc1 (HELM PEPTIDE1{Y.[Pen].G.F}|PEPTIDE2{Y.[Pen].G.F}|CHEM1{[C1CN([*:2])CCN1[*:1]]}$PEPTIDE1,PEPTIDE2,2:R3-2:R3|PEPTIDE1,CHEM1,4:R2-1:R1|PEPTIDE2,CHEM1,4:R2-1:R2$$$V2.0)	Kappa-type opioid receptor (Homo sapiens)	Emax	62
N[C@@H](Cc1ccc(O)cc1)C(=O)N[C@@H]1CSSC[C@@H](NC(=O)[C@@H](N)Cc2ccc(O)cc2)C(=O)NCC(=O)N[C@@H](Cc2ccccc2)C(=O)NCCSSCCNC(=O)[C@H](Cc2ccccc2)NC(=O)CNC1=O (HELM PEPTIDE1{Y.[dC].G.F}|PEPTIDE2{Y.[dC].G.F}|CHEM1{[C(CSSCCN[*:2])N[*:1]]}$PEPTIDE1,PEPTIDE2,2:R3-2:R3|PEPTIDE1,CHEM1,4:R2-1:R1|PEPTIDE2,CHEM1,4:R2-1:R2$$$V2.0)	Kappa-type opioid receptor (Homo sapiens)	Emax	99

// below: Emax requested for another molecule
Summary: N[C@@H](Cc1ccc(O)cc1)C(=O)N[C@@H]1CSSC[C@@H](NC(=O)[C@@H](N)Cc2ccc(O)cc2)C(=O)NCC(=O)N[C@@H](Cc2ccccc2)C(=O)N2CCN(CC2)C(=O)[C@H](Cc2ccccc2)NC(=O)CNC1=O (HELM PEPTIDE1{Y.[dC].G.F}|PEPTIDE2{Y.[dC].G.F}|CHEM1{[C1CN([*:2])CCN1[*:1]]}$PEPTIDE1,PEPTIDE2,2:R3-2:R3|PEPTIDE1,CHEM1,4:R2-1:R1|PEPTIDE2,CHEM1,4:R2-1:R2$$$V2.0) , Kappa-type opioid receptor (Homo sapiens), Emax = 92

====

target-system: Delta-type opioid receptor (Homo sapiens, UniProt P41143)
test-summary: Agonist activity at DOR (unknown origin) expressed in HEK cells assessed as reduction in cAMP accumulation by split luciferase assay
Assay type: functional, cell-based
condition-details: read-out: EC50
*1 amine or outer side, *2 acyl side, *3 side chain or, on linkers, in order; H or OH if unused. Where a SMILES comes first, the peptide text is derived from it. Bridges are numbered along the chain shown (N, C = ends). Roman numbers before positions name the chains, in order. [ ]: non-standard residue; d: D form. Piperazine(1,4-diyl) = C1CN([*:2])CCN1[*:1]; Dmt = Cc1cc(O)cc(C)c1C[C@H](N)C(=O)O; Cystamine = C(CSSCCN[*:2])N[*:1]
parameter: pEC50
One number for each entry, as −log10 of the molar value.

Solved cases (3 shown):
molecule	pEC50
Cc1cc(O)cc(C)c1C[C@H](N)C(=O)N[C@@H]1CSSC[C@@H](NC(=O)[C@@H](N)Cc2c(C)cc(O)cc2C)C(=O)NCC(=O)N[C@@H](Cc2ccccc2)C(=O)NCCSSCCNC(=O)[C@H](Cc2ccccc2)NC(=O)CNC1=O (I: H-[Dmt][dC]GF / II: H-[Dmt][dC]GF; disulfide I:2-II:2; linker I:C-II:C via Cystamine)	8.84
N[C@@H](Cc1ccc(O)cc1)C(=O)N[C@@H]1CSSC[C@@H](NC(=O)[C@@H](N)Cc2ccc(O)cc2)C(=O)NCC(=O)N[C@@H](Cc2ccccc2)C(=O)N2CCN(CC2)C(=O)[C@H](Cc2ccccc2)NC(=O)CNC1=O (HELM PEPTIDE1{Y.[dC].G.F}|PEPTIDE2{Y.[dC].G.F}|CHEM1{[C1CN([*:2])CCN1[*:1]]}$PEPTIDE1,PEPTIDE2,2:R3-2:R3|PEPTIDE1,CHEM1,4:R2-1:R1|PEPTIDE2,CHEM1,4:R2-1:R2$$$V2.0)	6.61
N[C@@H](Cc1ccc(O)cc1)C(=O)N[C@@H]1CSSC[C@@H](NC(=O)[C@@H](N)Cc2ccc(O)cc2)C(=O)NCC(=O)N[C@@H](Cc2ccccc2)C(=O)NCCSSCCNC(=O)[C@H](Cc2ccccc2)NC(=O)CNC1=O (HELM PEPTIDE1{Y.[dC].G.F}|PEPTIDE2{Y.[dC].G.F}|CHEM1{[C(CSSCCN[*:2])N[*:1]]}$PEPTIDE1,PEPTIDE2,2:R3-2:R3|PEPTIDE1,CHEM1,4:R2-1:R1|PEPTIDE2,CHEM1,4:R2-1:R2$$$V2.0)	7.57

Now for a further molecule.
// returns pEC50 for Cc1cc(O)cc(C)c1C[C@H](N)C(=O)N[C@@H]1CSSC[C@@H](NC(=O)[C@@H](N)Cc2c(C)cc(O)cc2C)C(=O)NCC(=O)N[C@@H](Cc2ccccc2)C(=O)N2CCN(CC2)C(=O)[C@H](Cc2ccccc2)NC(=O)CNC1=O (I: H-[Dmt][dC]GF / II: H-[Dmt][dC]GF; disulfide I:2-II:2; linker I:C-II:C via Piperazine(1,4-diyl)) with Delta-type opioid receptor (Homo sapiens, UniProt P41143); value = 6.93
